# TARGET_ENTITY: Triticum aestivum (wheat) EPSP synthase DGT-7 variant DGT-7 v8 (T→I, P→S; TIPS) (Triticum aestivum, UniProt B5M6A1, P172S/T168I)
# Construct: TIPS double mutant
# TEST_SUMMARY: In vitro kinetic assay (inorganic phosphate production, malachite green)
# Type: biochemical
# ASSAY_CONDITIONS: IC50 (glyphosate), at 60 μM PEP
pIC50: −log10 of the molar value.
PARAMETER: pIC50

O=C(O)CNCP(=O)(O)O [glyphosate, N-(phosphonomethyl)glycine] | 2.44

###

# TARGET_ENTITY: Triticum aestivum (wheat) EPSP synthase DGT-7 variant DGT-7 v7 (G→A, P→S; GAPS) (Triticum aestivum, UniProt B5M6A1, G167A/P172S)
# Construct: GAPS double mutant
# Sequence (B5M6A1 with tags, fused parts or gaps G167A/P172S): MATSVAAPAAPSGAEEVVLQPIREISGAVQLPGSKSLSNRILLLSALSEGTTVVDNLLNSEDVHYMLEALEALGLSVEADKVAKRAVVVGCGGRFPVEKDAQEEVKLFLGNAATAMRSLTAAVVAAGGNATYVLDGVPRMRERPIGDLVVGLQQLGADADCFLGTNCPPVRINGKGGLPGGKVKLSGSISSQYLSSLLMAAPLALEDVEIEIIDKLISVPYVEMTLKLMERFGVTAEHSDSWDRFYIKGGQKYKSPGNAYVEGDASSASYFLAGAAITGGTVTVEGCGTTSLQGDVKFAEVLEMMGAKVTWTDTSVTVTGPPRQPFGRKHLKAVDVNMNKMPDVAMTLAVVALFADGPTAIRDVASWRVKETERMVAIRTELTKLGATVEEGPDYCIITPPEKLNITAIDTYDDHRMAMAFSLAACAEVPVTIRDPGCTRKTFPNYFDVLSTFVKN
# TEST_SUMMARY: In vitro kinetic assay (inorganic phosphate production, malachite green)
# Type: biochemical
# ASSAY_CONDITIONS: IC50 (glyphosate), at 1 mM PEP
pIC50: −log10 of the molar value.
PARAMETER: pIC50

O=C(O)CNCP(=O)(O)O [glyphosate, N-(phosphonomethyl)glycine] | 1.71

###

# TARGET_ENTITY: Glycine max (soybean) EPSP synthase DGT-1 variant DGT-1 v8 (T→I, P→S; TIPS) (Glycine max, UniProt I1J7U9, P187S/T183I)
# Sequence (I1J7U9 with tags, fused parts or gaps T183I/P187S): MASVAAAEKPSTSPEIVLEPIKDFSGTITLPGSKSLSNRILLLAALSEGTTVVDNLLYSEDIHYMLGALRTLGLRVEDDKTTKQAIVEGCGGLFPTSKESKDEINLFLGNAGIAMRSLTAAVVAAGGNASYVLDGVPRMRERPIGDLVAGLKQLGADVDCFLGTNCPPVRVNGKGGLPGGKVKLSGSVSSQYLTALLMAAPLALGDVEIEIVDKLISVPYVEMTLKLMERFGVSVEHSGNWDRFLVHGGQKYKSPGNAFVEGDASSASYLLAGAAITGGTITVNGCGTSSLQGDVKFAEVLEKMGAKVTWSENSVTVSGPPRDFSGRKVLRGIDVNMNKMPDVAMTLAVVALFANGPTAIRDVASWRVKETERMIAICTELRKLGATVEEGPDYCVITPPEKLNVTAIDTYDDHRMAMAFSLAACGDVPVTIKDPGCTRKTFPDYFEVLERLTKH
# TEST_SUMMARY: In vitro kinetic assay (inorganic phosphate production, malachite green)
# Type: biochemical
# ASSAY_CONDITIONS: IC50 (glyphosate), at 1 mM PEP
# From the text: The following Class I enzymes: DGT-1 from Glycine max, DGT-3 from Brassica napus (GENBANK ACC NO: P17688), and DGT-7 from Triticum aestivum (GENBANK ACC NO: EU977181) were used as a comparison. The Class I EPSP synthase enzymes and mutant variants thereof were synthesized and evaluated. […]
PARAMETER: IC50 (mM)

O=C(O)CNCP(=O)(O)O [glyphosate, N-(phosphonomethyl)glycine] | 13.3
